Each recorded value in this set is attributed to ChEMBL document CHEMBL5137081.

experiment: AUC(0 to infinity) in Sprague-Dawley rat at 10 mg/kg, po or 2 mg/kg, iv measured upto 24 hrs by LC-MS/MS analysis; format: ADME, organism-based; set-up: dose 10 mg/kg, time < 24 hrs, route po; details: in vivo
reported-endpoint: AUC(0-inf) (ng·h/mL)

1 = CCn1c(CO)nn(-c2nc(O[C@@H](C)C(F)(F)F)c(C(=O)Nc3c(C)ccnc3Cl)cc2F)c1=O
2 = CCn1c(CO)nn(-c2nc(O[C@@H](C)C(F)(F)F)c(C(=O)Nc3c(C)cnc(OC)c3Cl)cc2F)c1=O
Q. Pick one, 1 or 2 : lowest reported AUC(0-inf). Reply briefly: the label of your chosen item.
A. 1
(1: 9210 ng·h/mL, 2: 23800 ng·h/mL)

====

assay: Metabolic stability in human liver microsome assessed as intrinsic clearance pretreated for 5 mins followed by NADPH addition and measured upto 60 mins by HPLC-MS/MS analysis; format: ADME; details: microsomes, 1.083 h, time < 65 min
reported-endpoint: CLH (µL/min/mg)

P = CCn1c(CO)nn(-c2nc(O[C@@H](C)C(F)(F)F)c(C(=O)Nc3cnccc3Cl)cc2F)c1=O
Q = CCn1c(CO)nn(-c2nc(O[C@@H](C)C(F)(F)F)c(C(=O)Nc3ccncc3Cl)cc2F)c1=O
R = CCn1c(CO)nn(-c2nc(O[C@@H](C)C(F)(F)F)c(C(=O)Nc3c(Cl)ccnc3OC)cc2F)c1=O
Q. Highest to lowest CLH: rank the entries shown above. // list labels; follow requested order
A. P, Q, R
(P: 45 µL/min/mg, Q: 15 µL/min/mg, R: 10 µL/min/mg)

====

assay: Lipophilicity, logD of compound at pH 7.4; assay type: physicochemical; conditions: buffer
reported-endpoint: logD

- compound-smiles: "CCn1c(CO)nn(-c2nc(O[C@@H](C)C(F)(F)F)c(C(=O)Nc3c(C)ccnc3Cl)cc2F)c1=O"
  logD: 2.7
- compound-smiles: "CCn1c(CO)nn(-c2nc(O[C@@H](C)C(F)(F)F)c(C(=O)Nc3c(C)cnc(OC)c3Cl)cc2F)c1=O"
  logD: 2.4

====

experiment: Half life in Sprague-Dawley rat at 10 mg/kg, po or 2 mg/kg, iv measured upto 24 hrs by LC-MS/MS analysis; type: ADME, organism-based; details: in vivo
reported-endpoint: half-life (min)

I = CCn1c(CO)nn(-c2nc(O[C@@H](C)C(F)(F)F)c(C(=O)Nc3c(C)ccnc3Cl)cc2F)c1=O
II = CCn1c(CO)nn(-c2nc(O[C@@H](C)C(F)(F)F)c(C(=O)Nc3c(C)cnc(OC)c3Cl)cc2F)c1=O
Q. Task for the reader: decide whether I or II has the larger half-life. Reply briefly: the label of your chosen item.
A. II

====

experiment: Inhibition of dog DHODH; design: species or system Canis lupus familiaris
pIC50: −log10 of the molar value.
reported-endpoint: pIC50

I = CCn1c(CO)nn(-c2nc(O[C@@H](C)C(F)(F)F)c(C(=O)Nc3c(C)cnc(OC)c3Cl)cc2F)c1=O
II = CCn1c(CO)nn(-c2nc(O[C@@H](C)C(F)(F)F)c(C(=O)Nc3c(C)ccnc3Cl)cc2F)c1=O
Q. Task for the reader: decide whether I or II has the larger pIC50. Reply briefly: the label of your chosen item.
A. I

====

assay: Plasma protein binding in dog assessed as free fraction at 1 uM by equilibrium dialysis based LC-MS/MS analysis; format: ADME, cell-free, Canis lupus familiaris
reported-endpoint: fraction unbound at 1 µM

A = CCn1c(CO)nn(-c2nc(O[C@@H](C)C(F)(F)F)c(C(=O)Nc3c(C)cnc(OC)c3Cl)cc2F)c1=O
B = CCn1c(CO)nn(-c2nc(O[C@@H](C)C(F)(F)F)c(C(=O)Nc3c(C)ccnc3Cl)cc2F)c1=O
Q. Task for the reader: decide whether A or B has the larger fraction unbound at 1 µM. Reply briefly: the label of your chosen item.
A. B

====

assay: Tmax in C57BL/6 mouse at 10 mg/kg, po or 2 mg/kg, iv measured upto 24 hrs by LC-MS/MS analysis; assay type: ADME, organism-based; settings: in vivo
reported-endpoint: Tmax (min)

1 = CCn1c(CO)nn(-c2nc(O[C@@H](C)C(F)(F)F)c(C(=O)Nc3c(C)ccnc3Cl)cc2F)c1=O
2 = CCn1c(CO)nn(-c2nc(O[C@@H](C)C(F)(F)F)c(C(=O)Nc3c(C)cnc(OC)c3Cl)cc2F)c1=O
Q. Task for the reader: decide whether 1 or 2 has the larger Tmax. Reply briefly: the label of your chosen item.
A. 2

====

Quick note: these are IC50 numbers for system: Cytochrome P450 2C19 (Homo sapiens)
Sequence (P33261 whole entry): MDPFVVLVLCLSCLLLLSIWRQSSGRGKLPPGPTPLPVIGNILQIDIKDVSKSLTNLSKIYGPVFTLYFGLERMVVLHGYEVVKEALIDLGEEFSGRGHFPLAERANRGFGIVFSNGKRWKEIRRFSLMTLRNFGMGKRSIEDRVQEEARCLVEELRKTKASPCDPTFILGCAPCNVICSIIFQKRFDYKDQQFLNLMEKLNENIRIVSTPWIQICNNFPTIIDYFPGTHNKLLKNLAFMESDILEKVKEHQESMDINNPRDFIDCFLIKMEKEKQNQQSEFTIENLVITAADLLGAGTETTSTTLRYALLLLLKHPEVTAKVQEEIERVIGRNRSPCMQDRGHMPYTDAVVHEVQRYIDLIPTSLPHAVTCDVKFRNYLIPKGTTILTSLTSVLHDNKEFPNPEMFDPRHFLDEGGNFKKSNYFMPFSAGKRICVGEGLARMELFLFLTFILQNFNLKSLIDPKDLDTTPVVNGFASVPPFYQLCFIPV

- compound-smiles: "CCn1c(CO)nn(-c2nc(O[C@@H](C)C(F)(F)F)c(C(=O)Nc3c(C)ccnc3Cl)cc2F)c1=O"
  reported-endpoint: "IC50"
  reported: "> 10 µM"

Next:
Q. Form entry - test system: Cytochrome P450 2C19 (Homo sapiens); read-out: IC50; molecule: CCn1c(CO)nn(-c2nc(O[C@@H](C)C(F)(F)F)c(C(=O)Nc3c(C)cnc(OC)c3Cl)cc2F)c1=O
A. > 10 µM

====

assay: Solubility of compound at pH 7 by HPLC analysis; type: physicochemical; settings: buffer
reported-endpoint: solubility (µM)

1 = CCn1c(CO)nn(-c2nc(O[C@@H](C)C(F)(F)F)c(C(=O)Nc3ncccc3Cl)cc2F)c1=O
2 = CCn1c(CO)nn(-c2nc(O[C@@H](C)C(F)(F)F)c(C(=O)Nc3c(Cl)ccnc3OC)cc2F)c1=O
Q. Pick one, 1 or 2 : lowest reported solubility. Reply briefly: the label of your chosen item.
A. 2

====

Attribute: CLH
experiment: Metabolic stability in human liver microsome assessed as intrinsic clearance pretreated for 5 mins followed by NADPH addition and measured upto 60 mins by HPLC-MS/MS analysis; assay type: ADME; conditions: microsomes, 1.083 h, time < 65 min

Example compounds with recorded CLH:
- compound-smiles: "CCn1c(CO)nn(-c2nc(O[C@@H](C)C(F)(F)F)c(C(=O)Nc3c(F)cnc(OC)c3Cl)cc2F)c1=O"
  CLH: "< 7.7 µL/min/mg"
- compound-smiles: "CCn1c(CO)nn(-c2nc(O[C@@H](C)C(F)(F)F)c(C(=O)Nc3c(C)ccnc3C(F)F)cc2F)c1=O"
  CLH: "< 7.7 µL/min/mg"
- compound-smiles: "CCn1c(CO)nn(-c2nc(O[C@@H](C)C(F)(F)F)c(C(=O)Nc3c(C)ccnc3Cl)cc2F)c1=O"
  CLH: "8 µL/min/mg"
- compound-smiles: "CCn1c(CO)nn(-c2nc(OC(C)C)c(C(=O)Nc3c(F)cccc3Cl)cc2F)c1=O"
  CLH: "< 7.7 µL/min/mg"

Q. Would you mind telling me what CLH value was observed for CCn1c(CO)nn(-c2nc(SC(C)C)c(C(=O)Nc3c(F)cccc3Cl)cc2F)c1=O ?
A. 15 µL/min/mg

Q. Next compound up: CCn1c(CO)nn(-c2nc(O[C@@H](C)C(F)(F)F)c(C(=O)Nc3c(C)cnc(OC)c3Cl)cc2F)c1=O
A. < 7.7 µL/min/mg

Q. Next compound up: CCn1c(CO)nn(-c2nc(O[C@@H](C)C(F)(F)F)c(C(=O)Nc3cccnc3Cl)cc2F)c1=O
A. < 8 µL/min/mg

Q. Next compound up: CCn1c(CO)nn(-c2nc(O[C@@H](C)C(F)(F)F)c(C(=O)Nc3c(Cl)ccnc3C)cc2F)c1=O
A. < 7.7 µL/min/mg

====

assay: Metabolic stability in rat liver microsome assessed as intrinsic clearance pretreated for 5 mins followed by NADPH addition and measured upto 60 mins by HPLC-MS/MS analysis; type: ADME; conditions: liver microsomes, time < 65 min, read-out: CLH
reported-endpoint: CLint scaled (mL/min/kg)

- compound-smiles: "CCn1c(CO)nn(-c2nc(O[C@@H](C)C(F)(F)F)c(C(=O)Nc3c(C)ccnc3Cl)cc2F)c1=O"
  reported: 5.2
- compound-smiles: "CCn1c(CO)nn(-c2nc(O[C@@H](C)C(F)(F)F)c(C(=O)Nc3c(C)cnc(OC)c3Cl)cc2F)c1=O"
  reported: 6.2

====

test: AUC(0 to infinity) in C57BL/6 mouse at 10 mg/kg, po or 2 mg/kg, iv measured upto 24 hrs by LC-MS/MS analysis; assay type: ADME, organism-based; parameters: time < 24 hrs, dose 10 mg/kg, route po; settings: in vivo
reported-endpoint: AUC(0-inf) (ng·h/mL)

A = CCn1c(CO)nn(-c2nc(O[C@@H](C)C(F)(F)F)c(C(=O)Nc3c(C)ccnc3Cl)cc2F)c1=O
B = CCn1c(CO)nn(-c2nc(O[C@@H](C)C(F)(F)F)c(C(=O)Nc3c(C)cnc(OC)c3Cl)cc2F)c1=O
Q. Task for the reader: decide whether A or B has the larger AUC(0-inf). Reply briefly: the label of your chosen item.
A. B
